# System: Human immunodeficiency virus 1
# test name: Antiviral activity against HIV1 3B infected in human MT4 cells assessed as reduction in virus-induced cytopathic effect by MTT assay
# Format: functional, cell-based
# condition label: Human immunodeficiency virus 1, 3B
pEC50: −log10 of the molar value.
measured metric: pEC50

>>> print(df.to_string())
                                    smi  relation_sign  result_number
0  C=C(C)CN(Cc1ccc(F)cc1)C(=O)c1ncccc1O              =           3.55
1          O=c1oc2cccnc2c(=O)n1Cc1cccs1              =           4.16
2     CCCCN(Cc1ccc(F)cc1)C(=O)c1ncccc1O              <           3.48
3   CC(C)CN(Cc1ccc(F)cc1)C(=O)c1ncccc1O              =           3.57
4      O=c1oc2cccnc2c(=O)n1Cc1ccc(F)cc1              =           4.13
5  CC(C)CCN(Cc1ccc(F)cc1)C(=O)c1ncccc1O              =           4.16

====

selectivity ratio: recorded values
# test name: Therapeutic Index, ratio of CC50 for human C8166 cells to EC50 for HIV1 3B infected in human C8166 cells
# Type: cell-based
# condition label: read-out: Ratio CC50/EC50
measured metric: selectivity ratio

>>> df
                                         smi  relation_sign  result_number
 0        COc1cc(CNC(=O)c2ncccc2O)cc(OC)c1OC              >              9
 1                O=C(Nc1ccc(F)cc1)c1ncccc1O              >             45
 2               O=C(NCc1ccc(F)cc1)c1ncccc1O              =            1.5
 3        O=C(NCc1ccc(C(F)(F)F)cc1)c1ncccc1O              <              1
 4                  O=C(NCC1CCCCC1)c1ncccc1O              =            2.1
 5          O=C(NCc1ccc2[nH]ccc2c1)c1ncccc1O              =              2
 6           O=C(NCc1ccc(F)c(Cl)c1)c1ncccc1O              =             16
 7  O=C(NCc1ccc(F)cc1)c1nc(N2CCCCS2(=O)=O)c2cccnc2c1O              =          52800
 8                   O=C(NCc1ccco1)c1ncccc1O              =            2.1
 9               Nc1ccc(CNC(=O)c2ncccc2O)cc1              >            2.3
10    O=C(NCc1ccc([N+](=O)[O-])cc1)c1ncccc1O              =            4.8
11                   O=C(NCc1cccs1)c1ncccc1O              =            2.9
12            O=C(NCc1cccc2ccccc12)c1ncccc1O              =            1.5

====

# Tested on: Human immunodeficiency virus 1
# test name: Antiviral activity against HIV1 3B infected in human C8166 cells assessed as reduction in virus-induced cytopathic effect by MTT assay
# Type: functional, cell-based
# condition label: Human immunodeficiency virus 1, 3B
measured metric: log10(EC50) (log10 of the value in µM)

>>> print(df.to_string())
                                  smi              measurement_target  measured_metric  result_number
0             O=C(NCc1ccco1)c1ncccc1O  Human immunodeficiency virus 1      log10(EC50)           2.43
1    O=C(NCc1ccc2[nH]ccc2c1)c1ncccc1O  Human immunodeficiency virus 1      log10(EC50)           1.85
2         O=C(NCc1ccc(F)cc1)c1ncccc1O  Human immunodeficiency virus 1      log10(EC50)           1.89
3             O=C(NCc1cccs1)c1ncccc1O  Human immunodeficiency virus 1      log10(EC50)           1.88
4  COc1cc(CNC(=O)c2ncccc2O)cc(OC)c1OC  Human immunodeficiency virus 1      log10(EC50)           1.77
5     O=C(NCc1ccc(F)c(Cl)c1)c1ncccc1O  Human immunodeficiency virus 1      log10(EC50)           1.28
6         Nc1ccc(CNC(=O)c2ncccc2O)cc1  Human immunodeficiency virus 1      log10(EC50)           2.41

====

# test name: Cytotoxicity against human C8166 cells assessed as reduction in cell viability after 72 hrs by MTT assay
# Assay type: toxicity, cell-based
CC50 at 72 h: recorded values
measured metric: CC50 at 72 h (µM)

>>> print(df.to_string())
                                         smi  scale_unit  relation_sign  result_number
 0                  O=C(NCC1CCCCC1)c1ncccc1O          µM              =            137
 1               O=C(NCc1ccc(F)cc1)c1ncccc1O          µM              =            114
 2           O=C(NCc1ccc(F)c(Cl)c1)c1ncccc1O          µM              =            310
 3                O=C(Nc1ccc(F)cc1)c1ncccc1O          µM              >            860
 4        O=C(NCc1ccc(C(F)(F)F)cc1)c1ncccc1O          µM              =           31.4
 5               Nc1ccc(CNC(=O)c2ncccc2O)cc1          µM              >            596
 6                       CCCCNC(=O)c1ncccc1O          µM              >           1000
 7                   O=C(NCc1ccco1)c1ncccc1O          µM              =            575
 8            O=C(NCc1cccc2ccccc12)c1ncccc1O          µM              =           88.8
 9          O=C(NCc1ccc2[nH]ccc2c1)c1ncccc1O          µM              =            138
10        COc1cc(CNC(=O)c2ncccc2O)cc(OC)c1OC          µM              >            500
11  O=C(NCc1ccc(F)cc1)c1nc(N2CCCCS2(=O)=O)c2cccnc2c1O          µM              =            123
12    O=C(NCc1ccc([N+](=O)[O-])cc1)c1ncccc1O          µM              =            127
13                   O=C(NCc1cccs1)c1ncccc1O          µM              =            218

====

EC50: recorded values
# System: Human immunodeficiency virus 1
# test name: Antiviral activity against HIV1 3B infected in human C8166 cells assessed as reduction in virus-induced cytopathic effect by MTT assay
# Format: functional, cell-based
# condition label: Human immunodeficiency virus 1, 3B
measured metric: EC50 (µM)

>>> print(df.to_string())
                                        smi  measured_metric  scale_unit  result_number
0  O=C(NCc1ccc(F)cc1)c1nc(N2CCCCS2(=O)=O)c2cccnc2c1O             EC50          µM        0.00233
1            O=C(NCc1cccc2ccccc12)c1ncccc1O             EC50          µM           58.2
2        O=C(NCc1ccc(C(F)(F)F)cc1)c1ncccc1O             EC50          µM           43.2
3                O=C(Nc1ccc(F)cc1)c1ncccc1O             EC50          µM           19.4
4    O=C(NCc1ccc([N+](=O)[O-])cc1)c1ncccc1O             EC50          µM           26.4
5                  O=C(NCC1CCCCC1)c1ncccc1O             EC50          µM           66.2
